// data source = patent US20100129800A1

measurement_notes: Fluorescence properties of the new compounds (excitation and emission wavelengths)
Assay type: physicochemical
cond: free compound
Collected Fluorescence Excitation (nm) values appear next to each entry.

Please fill in: Fluorescence Excitation (nm) reported for CC(=O)NC1CC(C(=O)NC2CC(C(=O)NC3CC(C(N)=O)N(C(=O)CNC(=O)c4c5ccccc5nc5c4[nH]c4ccccc45)C3)N(C(=O)CNC(=O)c3c4ccccc4nc4c3[nH]c3ccccc34)C2)N(C(=O)CNC(=O)c2c3ccccc3nc3c2[nH]c2ccccc23)C1 (centres unmarked) [Example 57] = 348 nm

Next, consider the following compound.
Please fill in: Fluorescence Excitation (nm) reported for CC(=O)NC1CC(C(=O)NC2CC(C(=O)NC3CC(C(N)=O)N(C(=O)CNC(=O)c4c5ccccc5nc5ccccc45)C3)N(C(=O)CNC(=O)c3c4ccccc4nc4c3[nH]c3ccccc34)C2)N(C(=O)CNC(=O)c2c3ccccc3nc3ccccc23)C1 (centres unmarked) [Example 58] = 275 nm
